# targetEntity: T1, PUF4 RNA-binding domain (Saccharomyces cerevisiae, UniProt P25339 537-888)
# T1 sequence: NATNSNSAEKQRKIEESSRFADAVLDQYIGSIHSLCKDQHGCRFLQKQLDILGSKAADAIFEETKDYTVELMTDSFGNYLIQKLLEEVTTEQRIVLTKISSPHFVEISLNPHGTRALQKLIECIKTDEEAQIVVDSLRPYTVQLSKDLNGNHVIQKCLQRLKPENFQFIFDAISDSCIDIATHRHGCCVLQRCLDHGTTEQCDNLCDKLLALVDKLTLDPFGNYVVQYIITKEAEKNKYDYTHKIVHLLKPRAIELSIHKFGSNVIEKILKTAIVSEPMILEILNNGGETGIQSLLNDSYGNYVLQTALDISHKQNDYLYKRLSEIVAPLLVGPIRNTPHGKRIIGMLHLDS
# testMethodNotes: Mg; RNA-MaP; 20 mM Na-HEPES pH 7.4, 30 mM KOAc, 0.75 mM MgCl2, 0.1% Tween-20, 5% glycerol, 0.1 mg/mL BSA, 2 mM DTT; 25 C; 0.0125-409.6 nM protein
# reportedConditions: tags: N-His6-TEV cleaved; C-SNAP kept, Cy3B-labelled; label: tethered on chip by stalled RNA polymerase
Let's look at some binders and their measured Kd.
Only the number, expressed in nM, is required.

# binder, Kd / nM
measured = [
    ("ACAAACCCUAUAUAUUAACACAAAC (ssRNA) [Id_ii_S3_P4E.3_K4.2_C4.2_[T-1C]_H4.2_A4.1_F4.1_T4.2_[G10A]_[T11C]]", 25.9),
    ("Ib_S4_P5E.1_K5.1_C5.1_H5.1_[A4C]_A5.1_F5.1_[T8C]_T5.1 (ssRNA) RNA: UUUGACAACUGAUCGUUCUUUCUUGUCUUACUAUUCUUUCUCGAUCAGUUGUCUUU", 35.7),
]

Next, consider the following binder.
Entry Ic_S4_P4E.1_K4.1_C4.1_H4.1_A4.1_[T5G]_[A6C]_F4.1_[A9T]_T4.1 (ssRNA) RNA: UUUGACAACUGAUCGUUCUUUCUUGUAGCUUUUUCUUUCUCGAUCAGUUGUCUUU , Kd reported as 40.5

Measured values drawn from paper PMC9352680 for this set.
